Where do the numbers come from? From ChEMBL document CHEMBL1148205.

Test system: MDA-MB-231
Assay: Inhibition of human MDA-MB-231 cells invasion by Matrigel cell invasion assay
Type: functional, cell-based
Value Type: IC50 (µg/mL)
Answers are plain numbers, in µg/mL.

> print(dat)
                              record.smiles  observed.measurement
1  COC1=CC(=O)C=C(C[C@H]2[C@]3(C)CC[C@@H]4[C@]5(CCC[C@]4(C)C(=O)OC5)[C@H]3CC[C@]2(C)O)C1=O                     1
2  C[C@@]12CC[C@@H]3[C@]4(CCC[C@]3(C)C(=O)OC4)[C@H]1CC[C@](C)(O)[C@H]2CC1=CC(=O)C=CC1=O                     7
3              NCCCNCCCN1CCCC/C=C\CCCCCCCC1                   0.3

Q: For the molecule shown here, C[C@@]12CC[C@@H]3[C@]4(CCC[C@]3(C)C(=O)OC4)[C@H]1CC[C@](C)(O)[C@H]2Cc1cc(O)ccc1O , give the reported IC50.
Ans: 7
